- Tested target: Peptide 1593 (…) (Mycobacterium tuberculosis)
- Protocol notes: ELISA, NNK clone supernatant on coated peptide (22 hits)
Measured property: ratio (OD450 to WT OD450)

For the binder 65D3 chimeric Fab, NNK library L3 mutant S to T (VL S25T) (Fab, V domains shown) VH: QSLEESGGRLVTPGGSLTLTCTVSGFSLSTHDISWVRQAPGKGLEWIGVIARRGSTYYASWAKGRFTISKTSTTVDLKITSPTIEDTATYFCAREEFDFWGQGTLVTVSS VL: AVLTQTASPVSAAVGGTVTISCQSTQSVYNNKELSWFQQKPGQPPKLLISYASTLASGVPSRFKGSGSGTQFTLTISDLECDDAATYYCLGGYASTIDMWAFGGGTEVVVK , what ratio (OD450 to WT OD450) is on record?
1.19 fold of WT
